Target: Metabotropic glutamate receptor 8 (Rattus norvegicus)
Test: mGluR8 Gi/Go-coupled signaling modulation – cell-based, rat, thallium flux, HTS, primary screen (AID 488969)
Conditions: HEK293 rat mGluR8, GIRK thallium flux, FluoZin2; at 10 µM; stronger effect = higher value; submaximal glutamate (EC20) added with thallium
In all, about 110,000 compounds were measured (“z-score”: median about -0.1, highest 2% from about 2 on). The sample holds the highest values, similar compounds and a random draw of the others, so the mix is not that of the screen. Active and inactive are the calls of the source.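 How the source made its calls: active means z-score in the third read window above 3 or below -3; inactive means the rest.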
The following compounds are listed with their measured z-score values.

# COMPOUND, z-score
rows = [
    ("Cc1ccc(NC(=O)c2cc(N3C(=O)C=CC3=O)ccc2Cl)cc1C", -0.0892),
    ("O=C(COc1ccccc1)Nc1ccc([N+](=O)[O-])cc1", 0.423),
    ("COc1ccc(C(=O)NC(=S)Nc2ccc3c(c2)Cc2ccccc2-3)cc1", 0.991),
    ("CCc1nc(SCC(=O)Nc2c(C)n(C)n(-c3ccccc3)c2=O)n[nH]1", -0.584),
    ("Cc1cc(NC(=O)C(C)C)ncc1NC(=O)Cc1ccccc1", 1.07),
    ("O=C(COc1ccccc1)NC(=S)Nc1ccc2c(c1)Cc1ccccc1-2", "6.86 (active)"),
    ("O=C(N/N=C/c1ccc[nH]1)c1cccc([N+](=O)[O-])c1", -0.104),
    ("CCOc1ccc(CNC(=O)CCn2c(=O)oc3ccccc32)cc1OC", 0.903),
    ("CCOC(=O)c1cnc(-n2nc(C)cc2C)nc1Nc1ccccc1OC", 0.0785),
    ("COc1ccccc1NC(=O)Cc1c(F)cccc1Cl", -0.193),
    ("S=c1nc(-c2ccccc2)oc2c1CCCC2", -0.0866),
    ("OC(CSc1ccccc1Cl)CN1CCN(c2ccc(F)cc2)CC1 (stereo unspecified)", -0.618),
    ("C/C(CC1CC2=C(CC1(C)C)C(C)(C)CCC2)=N\\NC(N)=S (stereo unspecified)", 0.599),
    ("O=C(COc1ccccc1)NC(=S)Nc1cccc(NC(=O)c2ccccc2Cl)c1", -0.164),
    ("S=c1nc(-c2ccc(Br)cc2)oc2c1CCCC2", "4.2 (active)"),
    ("Cc1ccc2nsnc2c1NC(=O)c1ccc2c(c1)OCCO2", -0.679),
    ("Cc1cccc(N=c2oc3cc(O)ccc3cc2C(N)=O)c1", 0.0144),
    ("Cc1ccc(CN(Cc2ccc(C)o2)C(=S)NCC(=O)O)cc1", -0.00212),
    ("Cc1cccc(-c2nc(=S)c3c(o2)CCCC3)c1", 0.856),
    ("O=C(COc1ccccc1)NC(=S)Nc1cccc([N+](=O)[O-])c1", "11.8 (active)"),
    ("Cc1cccc(-n2c(C)nc3c(cnn3-c3ccc(F)cc3)c2=O)c1", 1.02),
]

====

Molecular target: Metabotropic glutamate receptor 8 (Rattus norvegicus) (UniProt P70579)
Sequence (P70579 whole entry, looked up): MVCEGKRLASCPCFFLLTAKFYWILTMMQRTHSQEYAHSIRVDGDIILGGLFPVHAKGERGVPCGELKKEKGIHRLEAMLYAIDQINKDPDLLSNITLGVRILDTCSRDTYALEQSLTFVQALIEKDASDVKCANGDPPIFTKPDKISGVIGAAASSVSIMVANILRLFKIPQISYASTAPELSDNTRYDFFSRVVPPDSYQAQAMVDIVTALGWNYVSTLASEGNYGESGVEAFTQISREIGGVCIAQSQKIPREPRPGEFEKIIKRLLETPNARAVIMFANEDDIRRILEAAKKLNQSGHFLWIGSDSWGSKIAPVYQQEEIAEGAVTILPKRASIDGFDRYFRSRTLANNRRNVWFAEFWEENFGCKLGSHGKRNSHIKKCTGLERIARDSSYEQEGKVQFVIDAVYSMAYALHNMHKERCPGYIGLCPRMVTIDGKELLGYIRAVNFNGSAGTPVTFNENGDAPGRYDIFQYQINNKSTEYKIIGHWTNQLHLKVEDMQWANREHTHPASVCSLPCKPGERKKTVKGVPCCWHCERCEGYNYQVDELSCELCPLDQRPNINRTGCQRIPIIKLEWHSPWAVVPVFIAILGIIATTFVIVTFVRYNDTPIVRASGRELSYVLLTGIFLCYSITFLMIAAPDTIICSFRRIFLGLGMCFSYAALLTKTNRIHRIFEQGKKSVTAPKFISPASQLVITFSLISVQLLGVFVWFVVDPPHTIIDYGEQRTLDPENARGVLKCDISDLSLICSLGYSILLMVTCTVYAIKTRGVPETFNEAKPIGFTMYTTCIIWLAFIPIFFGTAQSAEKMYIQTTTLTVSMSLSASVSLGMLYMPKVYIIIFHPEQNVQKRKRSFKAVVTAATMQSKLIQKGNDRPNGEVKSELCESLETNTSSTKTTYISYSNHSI
Assay: mGluR8 Gi/Go-coupled signaling modulation – cell-based, rat, thallium flux, HTS, primary screen (AID 488969)
Conditions: HEK293 rat mGluR8, GIRK (G protein-gated inwardly rectifying potassium channel) thallium flux, FluoZin2; at 10 µM; stronger effect = higher value; submaximal glutamate (EC20) added with thallium
In all, about 110,000 compounds were measured (“z-score”: median about -0.1, highest 2% from about 2 on). The full list was thinned out, with the highest values kept by preference.
Decide using z-score: a value greater than or equal to 0.2 is Y, a smaller one is N.

# MOLECULE, ASSIGNED LABEL
data = [
    ("CCOC(=O)c1cnc2ccc(OCC)cc2c1N1CCN(c2ccccc2OC)CC1", "N"),
    ("CCCCn1nnc(NC(=S)NC(=O)c2ccc(-c3cccc(Cl)c3Cl)o2)n1", "Y"),
    ("CN(C)C=NC(=O)c1ccc([N+](=O)[O-])c(CS(=O)(=O)c2ccc(Cl)cc2)c1", "N"),
    ("CCCCN(CCCNC(=O)C1CCN(S(=O)(=O)N2CCOCC2)CC1)Cc1ccccc1", "Y"),
    ("NNc1nc2c(F)cc(F)cc2s1", "N"),
    ("O=C(N/N=C\\c1cn[nH]c1-c1ccccc1)c1cccnc1", "N"),
    ("CCC1(C)CC(c2csc(N)n2)CCO1 (configuration not stated)", "Y"),
    ("O=C(NC(=S)Nc1ccc(N2CCCCC2)cc1)c1cccs1", "Y"),
    ("COC(=O)C1=NN(C(=O)c2ccc(Cl)cc2)C(O)(c2ccccc2)C1 (configuration not stated)", "Y"),
    ("Cc1ccc(C(=O)N/N=c2\\sc3ccccc3n2C)cc1", "Y"),
    ("O=C(NC(=S)Nc1ccc(S(=O)(=O)N2CCCC2)cc1)c1cccs1", "Y"),
    ("CCC1=NN(C(=O)Cc2ccc([N+](=O)[O-])cc2)C(O)(c2ccc(Br)cc2)C1 (configuration not stated)", "N"),
    ("CC(C)N(CCNC(=O)C1CCN(S(=O)(=O)N2CCOCC2)CC1)Cc1ccccc1", "Y"),
    ("Fc1cccc2sc(Nc3nc4c(F)cccc4s3)nc12", "Y"),
    ("Cc1cc(C(F)(F)F)nn1Cc1n[nH]c(=S)n1-c1cccc(Cl)c1", "N"),
    ("O=C(NC(=S)Nc1ccc(S(=O)(=O)N2CCCCCC2)cc1)c1cccs1", "N"),
    ("CCOC(=O)C1=NN(C(=O)c2ccco2)C2(CC2)C1", "N"),
    ("NNc1nc2c(F)cccc2s1", "N"),
    ("COc1ccc(-c2nc(C)ncc2-c2csc(C)n2)c(O)c1", "N"),
    ("O=C(Nc1ccccc1N1CCCCC1)c1cccs1", "Y"),
    ("CN(C)CCNC(=O)C1CCCNC1=O (configuration not stated)", "N"),
    ("CC1(C)CC(c2csc(N)n2)CCO1 (configuration not stated)", "Y"),
    ("Fc1cc(F)c2nc(Nc3nc4c(F)cccc4s3)sc2c1", "Y"),
    ("COc1ccc(C(=O)c2cn[nH]c2-c2cc(Cl)ccc2O)cc1", "N"),
    ("CC1=NN(C(=O)c2ccc(C)cc2)C(O)(C(F)(F)OC(F)(F)F)C1 (configuration not stated)", "N"),
    ("COc1ccc(CNC(=O)C(NC(C)=O)C(=O)Nc2ccc(OC)cc2)cc1 (configuration not stated)", "N"),
    ("CN(Cc1ccccc1)c1nc2c(c(=O)[nH]c(=O)n2C)n1CCSc1ncccn1", "Y"),
    ("Cc1csc(NC(=O)CSc2nnc(-c3cc(C)on3)o2)n1", "Y"),
    ("CCCCCC(=O)NC(=S)Nc1ccc(N2CCCCC2)c(Cl)c1", "N"),
    ("CCOC(=O)C(C)On1c(-c2cccc(Cl)c2)nc2ccc([N+](=O)[O-])cc21 (configuration not stated)", "Y"),
    ("COc1ccc2c(c1OC)C(=O)N1N=C(c3ccc(Br)cc3)CC21 (configuration not stated)", "N"),
    ("O=S(=O)(NC1CC1)c1ccc(S(=O)(=O)N(Cc2ccccn2)C2CCCC2)cc1", "N"),
    ("CCOC(=O)C1=NN(C(=O)c2ccccc2)C(O)(c2ccc(C)cc2)C1 (configuration not stated)", "Y"),
    ("Cc1nc2c(C)cccc2cc1C(=O)N/N=C/c1cccnc1", "N"),
    ("COC(=O)c1ccccc1NC(=O)CSc1nnc(Cc2ccc(Cl)cc2)o1", "N"),
    ("CC1CC(C)CN(CCCNC(=O)Cn2ncc3c(=O)oc4ccccc4c32)C1 (configuration not stated)", "N"),
    ("O=c1oc2ccccc2c(N2CCCC2)c1CN1CCCC1", "N"),
]

Hello, the source for this data is PubChem BioAssay AID488969, in case you need it.
